Attribution: patent US5653961A

# protocol-notes: Solubility of butixocort propionate in propellants and propellant/ethanol blends
# Assay type: physicochemical
# applied-conditions: propellant 134a, 5% ethanol, organic solvent or mixture, 5 weight % ethanol, 20°C; Table 2
value-type: solubility at 168 h
Report field: quantity (unit follows the number).

get_value(item= CCCC(=O)O[C@]1(C(=O)CSC(=O)CC)CC[C@H]2[C@@H]3CCC4=CC(=O)CC[C@]4(C)[C@H]3[C@@H](O)C[C@@]21C [Butixocort propionate] , readout=solubility at 168 h) returns 4180 µg/mL

###

# protocol-notes: Solubility of butixocort propionate in propellants and propellant/ethanol blends
# Assay type: physicochemical
# applied-conditions: propellant 227, 1% ethanol, organic solvent or mixture, Propellant 227, 1 weight % ethanol, 20°C; Table 2
value-type: solubility at 168 h (µg/mL)
Write the value in µg/mL as a bare number.

get_value(item= CCCC(=O)O[C@]1(C(=O)CSC(=O)CC)CC[C@H]2[C@@H]3CCC4=CC(=O)CC[C@]4(C)[C@H]3[C@@H](O)C[C@@]21C [Butixocort propionate] , readout=solubility at 168 h) returns 971

###

# protocol-notes: Solubility of butixocort propionate in propellants and propellant/ethanol blends
# Assay type: physicochemical
# applied-conditions: propellant 134a, organic solvent or mixture, 4 °C; Table 1; average of three determinations
value-type: solubility at 168 h (µg/mL)
Write the value in µg/mL as a bare number.

get_value(item= CCCC(=O)O[C@]1(C(=O)CSC(=O)CC)CC[C@H]2[C@@H]3CCC4=CC(=O)CC[C@]4(C)[C@H]3[C@@H](O)C[C@@]21C [Butixocort propionate] , readout=solubility at 168 h) returns 103

###

# protocol-notes: Solubility of butixocort propionate in propellants and propellant/ethanol blends
# Format: physicochemical
# applied-conditions: propellant 134a, organic solvent or mixture, 20 °C; Table 1; average of three determinations
# Protocol: Solubility of butixocort propionate in P134a, P227, and blends thereof with ethanol, was determined as follows: Drug and the selected propellant system were combined and agitated for a period of seven days at a selected temperature to afford a saturated solution. The solid was filtered off and the supernatant was weighed. The propellant was removed by evaporation and the drug was reconstituted quantitatively. […]
value-type: solubility at 168 h (µg/mL)
Write the value in µg/mL as a bare number.

get_value(item= CCCC(=O)O[C@]1(C(=O)CSC(=O)CC)CC[C@H]2[C@@H]3CCC4=CC(=O)CC[C@]4(C)[C@H]3[C@@H](O)C[C@@]21C [Butixocort propionate] , readout=solubility at 168 h) returns 203
